Just for reference, patent US8513221B2 is where these values come from.

- EXPERIMENTAL TARGET: PI3Kδ (Homo sapiens, UniProt O00329)
- Construct: purchased Ambit Biosciences (San Diego, Calif., USA); host or cells: T7 phage in BL21-derived E. coli, or HEK-293
- ASSAY INFO: Ambit Biosciences kinase competition binding assay, PI3Kδ
- EXPERIMENTAL PARAMETERS: read-out: inhibition against PI3Kδ (IC50)
MEASURED ENDPOINT: IC50

stdin: Please tell me: IC50 of "CS(=O)(=O)N1CCN(CCn2cnc3c(-n4c(C(F)F)nc5ccccc54)nc(N4CCOCC4)nc32)CC1" , system PI3Kδ (Homo sapiens, UniProt O00329)?
stdout: < 0.03 µM

----------
- EXPERIMENTAL TARGET: PI3Kβ (Homo sapiens, UniProt P42338)
- Sequence (P42338 whole entry): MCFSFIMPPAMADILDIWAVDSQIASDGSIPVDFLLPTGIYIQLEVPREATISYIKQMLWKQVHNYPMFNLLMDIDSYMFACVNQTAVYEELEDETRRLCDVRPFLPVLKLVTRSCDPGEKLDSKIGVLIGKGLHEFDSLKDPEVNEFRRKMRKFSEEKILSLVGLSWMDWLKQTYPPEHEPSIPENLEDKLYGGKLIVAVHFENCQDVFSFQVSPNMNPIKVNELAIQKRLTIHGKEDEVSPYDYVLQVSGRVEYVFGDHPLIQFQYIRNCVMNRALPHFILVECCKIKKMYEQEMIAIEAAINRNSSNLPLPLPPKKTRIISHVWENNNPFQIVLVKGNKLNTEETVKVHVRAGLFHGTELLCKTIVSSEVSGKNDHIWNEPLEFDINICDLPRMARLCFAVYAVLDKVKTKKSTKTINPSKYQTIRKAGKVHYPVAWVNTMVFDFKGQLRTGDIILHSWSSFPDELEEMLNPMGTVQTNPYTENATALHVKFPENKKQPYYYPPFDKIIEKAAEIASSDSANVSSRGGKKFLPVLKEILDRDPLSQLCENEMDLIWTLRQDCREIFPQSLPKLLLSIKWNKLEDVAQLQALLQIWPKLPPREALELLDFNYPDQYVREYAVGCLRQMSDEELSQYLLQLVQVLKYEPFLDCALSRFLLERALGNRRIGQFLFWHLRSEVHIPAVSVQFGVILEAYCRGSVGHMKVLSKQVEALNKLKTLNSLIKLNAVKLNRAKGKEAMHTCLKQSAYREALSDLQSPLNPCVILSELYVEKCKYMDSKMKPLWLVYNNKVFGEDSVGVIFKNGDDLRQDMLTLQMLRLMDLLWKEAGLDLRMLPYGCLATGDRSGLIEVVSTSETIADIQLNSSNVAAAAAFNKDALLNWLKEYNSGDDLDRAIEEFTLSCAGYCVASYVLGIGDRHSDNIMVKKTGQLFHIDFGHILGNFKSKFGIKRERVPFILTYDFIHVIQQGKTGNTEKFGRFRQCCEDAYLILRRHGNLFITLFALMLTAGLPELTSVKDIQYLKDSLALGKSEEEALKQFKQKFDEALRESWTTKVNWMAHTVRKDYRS
- ASSAY INFO: Ambit Biosciences kinase competition binding assay, PI3Kβ
- EXPERIMENTAL PARAMETERS: read-out: inhibitory activity against other isoforms: PI3Kβ
The molecules listed here are annotated with their IC50.

>>> df
                                   molecule  measured_endpoint  observed_result
0  CS(=O)(=O)N1CCN(CCn2cnc3c(-n4c(C(F)F)nc5ccccc54)nc(N4CCOCC4)nc32)CC1 [Example 14]               IC50         > 0.1 µM

stdin: For the record OCCn1cnc2c(-n3c(C(F)F)nc4ccccc43)nc(N3CCOCC3)nc21 [Example 28] , what value of IC50 is listed for PI3Kβ (Homo sapiens, UniProt P42338)?
stdout: > 0.1 µM

----------
- EXPERIMENTAL TARGET: PI3Kα (Homo sapiens)
- Sequence (P42336 whole entry): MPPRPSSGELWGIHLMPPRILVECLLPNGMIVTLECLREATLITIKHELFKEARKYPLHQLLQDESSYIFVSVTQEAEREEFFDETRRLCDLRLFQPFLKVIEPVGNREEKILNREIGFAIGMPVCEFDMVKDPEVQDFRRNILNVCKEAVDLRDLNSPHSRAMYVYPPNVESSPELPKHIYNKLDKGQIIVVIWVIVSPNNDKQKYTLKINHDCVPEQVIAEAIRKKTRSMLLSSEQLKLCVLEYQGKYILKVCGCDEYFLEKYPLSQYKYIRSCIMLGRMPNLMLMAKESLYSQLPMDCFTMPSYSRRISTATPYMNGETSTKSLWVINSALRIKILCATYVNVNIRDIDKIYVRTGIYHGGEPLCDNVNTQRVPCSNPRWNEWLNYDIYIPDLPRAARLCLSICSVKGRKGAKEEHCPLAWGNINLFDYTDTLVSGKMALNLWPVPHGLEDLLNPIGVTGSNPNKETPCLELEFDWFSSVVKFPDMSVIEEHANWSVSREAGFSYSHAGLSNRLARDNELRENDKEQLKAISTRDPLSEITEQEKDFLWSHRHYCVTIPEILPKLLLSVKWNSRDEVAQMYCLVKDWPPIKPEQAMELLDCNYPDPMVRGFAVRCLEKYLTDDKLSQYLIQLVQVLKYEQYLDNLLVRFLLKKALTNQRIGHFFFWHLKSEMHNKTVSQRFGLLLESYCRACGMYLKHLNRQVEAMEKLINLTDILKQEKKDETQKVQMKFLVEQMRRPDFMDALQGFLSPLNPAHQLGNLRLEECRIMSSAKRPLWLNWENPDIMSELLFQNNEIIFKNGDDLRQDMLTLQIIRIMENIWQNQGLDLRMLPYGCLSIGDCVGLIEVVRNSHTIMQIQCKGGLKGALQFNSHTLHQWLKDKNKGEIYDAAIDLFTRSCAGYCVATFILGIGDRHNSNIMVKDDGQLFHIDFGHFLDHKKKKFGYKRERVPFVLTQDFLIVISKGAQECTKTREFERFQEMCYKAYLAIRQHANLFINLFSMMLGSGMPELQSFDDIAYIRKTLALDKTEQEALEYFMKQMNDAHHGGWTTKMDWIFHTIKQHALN
- ASSAY INFO: Ambit Biosciences kinase competition binding assay, PI3Kα
- EXPERIMENTAL PARAMETERS: read-out: inhibitory activity against other isoforms: PI3Kα
pIC50: −log10 of the molar value.
MEASURED ENDPOINT: pIC50

>>> df
                                   compound   experimental_target  measured_endpoint  observed_result
0  OCCn1cnc2c(-n3c(C(F)F)nc4ccccc43)nc(N3CCOCC3)nc21 [Example 28]  PI3Kα (Homo sapiens)              pIC50           < 7.00

Kindly review the next compound as well.
stdin: # query: pIC50 of entry CS(=O)(=O)N1CCN(CCn2cnc3c(-n4c(C(F)F)nc5ccccc54)nc(N4CCOCC4)nc32)CC1 [Example 14]
stdout: < 7.00

----------
- EXPERIMENTAL TARGET: PI3Kδ (Homo sapiens, UniProt O00329)
- Construct: purchased Ambit Biosciences (San Diego, Calif., USA); host or cells: T7 phage in BL21-derived E. coli, or HEK-293
- Sequence (O00329 1-1044): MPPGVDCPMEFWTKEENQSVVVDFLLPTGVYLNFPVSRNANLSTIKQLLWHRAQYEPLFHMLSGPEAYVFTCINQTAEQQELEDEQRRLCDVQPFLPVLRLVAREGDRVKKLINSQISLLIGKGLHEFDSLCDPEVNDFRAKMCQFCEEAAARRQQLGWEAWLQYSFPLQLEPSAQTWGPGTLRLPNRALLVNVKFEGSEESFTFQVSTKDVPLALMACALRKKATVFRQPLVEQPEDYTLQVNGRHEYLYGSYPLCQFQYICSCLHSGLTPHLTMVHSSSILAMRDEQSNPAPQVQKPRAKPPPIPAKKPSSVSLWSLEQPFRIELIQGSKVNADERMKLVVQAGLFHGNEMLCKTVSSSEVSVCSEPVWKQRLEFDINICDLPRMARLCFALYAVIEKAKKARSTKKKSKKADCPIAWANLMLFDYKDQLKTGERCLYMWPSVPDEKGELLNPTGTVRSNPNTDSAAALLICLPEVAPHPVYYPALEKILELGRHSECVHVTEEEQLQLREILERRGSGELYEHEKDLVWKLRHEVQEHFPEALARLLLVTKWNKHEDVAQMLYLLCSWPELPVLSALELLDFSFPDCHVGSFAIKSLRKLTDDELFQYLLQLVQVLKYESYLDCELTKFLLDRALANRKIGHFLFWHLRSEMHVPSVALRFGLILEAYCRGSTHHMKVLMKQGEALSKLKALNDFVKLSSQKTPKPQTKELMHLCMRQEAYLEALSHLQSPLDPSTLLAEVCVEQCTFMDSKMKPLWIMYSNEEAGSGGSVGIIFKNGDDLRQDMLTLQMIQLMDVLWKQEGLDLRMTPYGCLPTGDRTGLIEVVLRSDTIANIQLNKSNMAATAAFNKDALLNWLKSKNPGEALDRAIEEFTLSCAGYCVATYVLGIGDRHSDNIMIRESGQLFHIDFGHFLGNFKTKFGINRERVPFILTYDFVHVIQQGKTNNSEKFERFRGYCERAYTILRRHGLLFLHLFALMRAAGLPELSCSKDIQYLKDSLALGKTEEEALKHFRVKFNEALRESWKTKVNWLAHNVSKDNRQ
- ASSAY INFO: Ambit Biosciences kinase competition binding assay, PI3Kδ
MEASURED ENDPOINT: IC50

stdin: For OCCn1cnc2c(-n3c(C(F)F)nc4ccccc43)nc(N3CCOCC3)nc21 [Example 28] , what is its reported IC50?
stdout: < 30 nM
